- Tested on: HOP-62 NSCLC
- protocol notes: NCI-60 one-dose screen, 48 h (100 = growth as untreated, 0 = no growth, -100 = all killed)
- protocol conditions: 10 µM unless noted
- Procedure: Growth inhibition of the HOP-62 human Non-Small Cell Lung tumor cell line is measured as a screen for anti-cancer activity. Cells are grown in 96 well plates and exposed to the test compound for 48 hours. Compounds are tested at a single concentration, which is 10^-5 M for most compounds. The reported endpoint is percent growth (GI% or GIPRCNT), where numbers from 0 - 100% represent growth inhibition, and numbers from -100% - 0 represent cell death. […]
This is part of a sample that, as a whole, favours compounds with a hit. Of some 83,000 tested, about 20% had one in any assay.
endpoint: growth (%)
Give the number; % is assumed, so skip it.

[[record]]
compound = "Nc1nc2c(nnn2Cc2ccc(Cl)c(Cl)c2)c(=O)[nH]1"
reported_measurement = 90.4

[[record]]
compound = "NC(=O)c1cc(Br)cc(Br)c1NS(=O)(=O)c1ccccc1"
reported_measurement = 98

[[record]]
compound = "O[N+]1=CC=CCC1=S.On1ccccc1=S.[Zn]"
reported_measurement = -86.8

[[record]]
compound = "COC(=O)N/N=C/c1coc2ccc(Cl)cc2c1=O"
reported_measurement = 74.7

[[record]]
compound = "N#Cc1ncc(-c2ccc(C(F)(F)F)cc2)c(NC2CCCCCC2)n1"
reported_measurement = 43.9


Entry COc1cc(-c2nc3sc4c(c3c(=O)[nH]2)CCCCCC4)cc(OC)c1OC , growth reported as 29.6

Entry Cc1sc2nc3c4ccccc4c(NCCCN(C)C)nn3c(=O)c2c1C , growth reported as 61.7

Entry COc1cccc(C2=NN(C(C)=O)C(c3cc(OC)c(OC)c(OC)c3)C2)c1 (configuration not stated) , growth reported as 31.5

Entry O=C(CN1CCN(c2ccc(Cl)cc2)CC1)N1CCN(c2nnc(-c3ccccc3)c(-c3ccccc3)n2)CC1 , growth reported as 58.1

Entry CCN(CC)CCSc1ncnc2c1cnn2-c1ccc(S(N)(=O)=O)cc1 , growth reported as 98.4

Entry Nc1ccn(C2O[C@H](CO)[C@@H](O)[C@@H]2O)c(=O)n1 (some centres not stated) , growth reported as 26.7

Entry O=C(Nc1ccc(Cl)cc1)Nc1ccccc1CNc1nc(Nc2ccc(OCCN3CCCC3)cc2)ncc1Cl , growth reported as 82.2

Entry COc1ccc2nc(NC(=O)CN3CCn4c(nnc4C(F)(F)F)C3)sc2c1 , growth reported as 88.1

Entry C=C1CCC2C3(C)COC(c4ccccc4)OC3CCC2(C)C1C/C=C1/C(=O)OCC1OC(C)=O (configuration not stated) , growth reported as 96.1

Entry O=[N+]([O-])c1ccc(N=Nc2c(Cl)cc(O)cc2Cl)cc1 , growth reported as 4.04
